Origin of measurements: the RNAGym collection of RNA variant scans (doi:10.7554/elife.80360)

B1: Twister Ribozyme (parent)
chain: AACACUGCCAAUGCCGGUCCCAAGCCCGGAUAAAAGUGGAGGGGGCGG

Variants of: B1
test: self-cleavage, relative activity (ratio to wild type); higher = more cleavage; co-transcriptional
I'd be grateful if you could share measured self-cleavage for these entries.

For the variant AACACUGCCACUGCAGGUCCCAAGCCCGGAUAAAAGUGGAGGGGGCGG [A11C C15A] , what self-cleavage is on record?
0.24

May I ask what self-cleavage has been recorded for AACACUGCCAAUGCCGGUCCCAAGCCGGGAUAAACGUGGAGGGGGCGG [C27G A35C] ?
0.104

Could you tell me which self-cleavage is on file for AGCACUGCCAAUGCCAGUCCCAAGCCCGGAUAAAAGUGGAGGGGGCGG [A2G G16A] ?
0.208

Query (variant): AACACUGCCAAUGCCGGUCCCAAGGCCGAAUAAAAGUGGAGGGGGCGG [C25G G29A] ; field requested: self-cleavage
0.564

// returns reported self-cleavage for input AACACUGUCAAUGCCGGUCCCAGGCCCGGAUAAAAGUGGAGGGGGCGG [C8U A23G]
0.107

Find the recorded self-cleavage belonging to AACACUGCCAAUACCGGUCCCAAGCCCGGAUAAAAGUGGAUGGGGCGG [G13A G41U] and report it.
0.131

I have this variant here, AACACUGCCAGUGCCGGUCCCAAGCCCGGAUAAAAGUGGAGAGGGCGG [A11G G42A] , and I need its recorded self-cleavage.
0.441

So what does the record say about self-cleavage for AACACUGUCAAUGCCGGUCCCAAGCCCGGAUAAAAGCGGAGGGGGCGG [C8U U37C] ?
0.284

Query: self-cleavage; subject: AACACUGCGAAUGCCGGUCCCAAGCCGGGAUAAAAGUGGAGGGGGCGG [C9G C27G]
0.0899

Consider the variant AACACUGCCAAUGCCGGUCCCAAGCCCGGAUAAAAGUGGAGUGGUCGG [G42U G45U] and give its measured self-cleavage.
0.191

So what does the record say about self-cleavage for AACACUGCCAAUGCCGGUCCCCAGCCCGGAUAAAAUUGGAGGGGGCGG [A22C G36U] ?
0.204

Can you share its self-cleavage? I mean this variant: AACACUGCCAACGCCGGUCCCAAGCCCGGAUAAAAGUGAAGGGGGCGG [U12C G39A]
0.609

# input variant: AACACUGCCAAUGCCGGUCCCAAGCACGGAUAAAAGUGGAAGGGGCGG [C26A G41A] ; wanted: its self-cleavage
0.101

Param item = AACACUGCCAAUGCCGGUCCCAAGCCUGGAUAAUAGUGGAGGGGGCGG [C27U A34U] ; retrieve measured self-cleavage.
0.567

Give its self-cleavage value. Item: AACACUGCCAAUGCCGGUCCCAAGCCCGGAUUAAAGUGGGGGGGGCGG [A32U A40G]
0.108

Reported self-cleavage, variant AACACUGCCAAUGCCGGUCCCAAUCGCGGAUAAAAGUGGAGGGGGCGG [G24U C26G] : ____
0.0895

Dear colleague, I am looking for the recorded self-cleavage of the following variant: AACACUGCCAAUGCCGGUCCCAAGCCUGGACAAAAGUGGAGGGGGCGG [C27U U31C]
0.651

Fill blank: measured self-cleavage of the variant AACACUGCCAAUCCUGGUCCCAAGCCCGGAUAAAAGUGGAGGGGGCGG [G13C C15U] is ____.
0.0748

Param item = AACACUGCCAAUGCCGCUCCCAAGCCCCGAUAAAAGUGGAGGGGGCGG [G17C G28C] ; retrieve measured self-cleavage.
0.0667

# self-cleavage lookup, item AACACUGCCAAUCCCGGUCCCAAGCCCGGAUAAAAGUGAAGGGGGCGG [G13C G39A]
0.118

Value lookup for self-cleavage; key = AAAACUGCCAAUGCCAGUCCCAAGCCCGGAUAAAAGUGGAGGGGGCGG [C3A G16A]
0.109

Please report the recorded self-cleavage for AACAUUGCCAAUGCCGGUCCUAAGCCCGGAUAAAAGUGGAGGGGGCGG [C5U C21U] .
0.0809

self-cleavage lookup needed for AACACUGCCAAUGCCGGUUCCAAGCCCGGAUAAAAGUGGAGGGGGGGG [C19U C46G] , thanks.
0.929

// self-cleavage lookup, key: AACACUGCCAAUGACGGUCCCAAGCCCGGAUAAAAGUGGAGGUGGCGG [C14A G43U]
0.456

GET /values?readout=self-cleavage&item= AACACUACCAAUGCCGGUCCCAAGCCCGGAUAAAAGUGGAGGGAGCGG [G7A G44A]
0.619

Item AACACUGCCAAUUCCGGUCCCAAGCUCGGAUAAAAGUGGAGGGGGCGG [G13U C26U] has what recorded self-cleavage?
0.109

// returns reported self-cleavage for input AACACUGUCAAUGCAGGUCCCAAGCCCGGAUAAAAGUGGAGGGGGCGG [C8U C15A]
0.318

Given AACGCUGCCAAUGCCGGUCCCAAGCCCGGAUGAAAGUGGAGGGGGCGG [A4G A32G] , state its recorded self-cleavage.
1.05

Entry AACUCUGCCAAUGCCGGUCCCAAGCCCAGAUAAAAGUGGAGGGGGCGG [A4U G28A] : reported self-cleavage = ?
0.0702

Query (variant): AACACCGCCAAUGCCGGUCCCAAGCCCGGAUAAAAGUGGAGGGCGCGG [U6C G44C] ; field requested: self-cleavage
0.513

Bench note: what self-cleavage did AACACUGCCAAUGCUGGUCCCAAGCCCGGAUAAAUGUGGAGGGGGCGG [C15U A35U] show?
0.915

Bench note: what self-cleavage did GACACUACCAAUGCCGGUCCCAAGCCCGGAUAAAAGUGGAGGGGGCGG [A1G G7A] show?
0.216

Data request, read-out self-cleavage, for AACCCUGCCAAUGCCGGUCCCAAGCCCGGAUAUAAGUGGAGGGGGCGG [A4C A33U]
0.152

Find the recorded self-cleavage belonging to AACACUGCAAAUGCCGGUCCCAAGCCCGGAUCAAAGUGGAGGGGGCGG [C9A A32C] and report it.
0.665

Value lookup for self-cleavage; key = AACACUGCCAAUGCCGGCCCCAAGCCCGGAUAAGAGUGGAGGGGGCGG [U18C A34G]
0.142

Field request: self-cleavage | item: AACACUGCCAAUGCCGGUCCCAACCGCGGAUAAAAGUGGAGGGGGCGG [G24C C26G]
0.0413

Would you mind telling me what self-cleavage value was observed for AACACUGCCAAUGCCGGUCCCAAGCCCGGAUUAAAGUCGAGGGGGCGG [A32U G38C] ?
1.12

Name the reported self-cleavage value associated with the variant AACACUCCCAAUGCCGGUCCCAAGCCCGGAUAAAAGUGGCGGGGGCGG [G7C A40C]
0.0472

What self-cleavage value was documented for this variant, AAUACUGCCAAUGCCGGUCCCAAGCCCGGAUAUAAGUGGAGGGGGCGG [C3U A33U] ?
0.471

# get_value(readout='self-cleavage', item= CACACUGCCAAUGCCGGUCCCAAGCCCGUAUAAAAGUGGAGGGGGCGG [A1C G29U] )
0.215

Item AACACUGCCAAUGCCGGUCCCAAGCCCGGAUAAAAGUGAAGUGGGCGG [G39A G42U] has what recorded self-cleavage?
0.164

Consider the variant shown here: AACACUGCCAAUGCCGGUCCCAAGCCUGGAUAAAAGUGCAGGGGGCGG [C27U G39C] What is its recorded self-cleavage?
0.136

Query: self-cleavage; subject: AACACUGGCAGUGCCGGUCCCAAGCCCGGAUAAAAGUGGAGGGGGCGG [C8G A11G]
0.392

Reported self-cleavage for AACACUGCCAAUGCCGGUCCCAAGCCCGGCUAAGAGUGGAGGGGGCGG [A30C A34G] : what is it?
0.326

What measured self-cleavage goes with AACACUGCCAAUGCCGGUCCCAAGCCCGGAUUAAAGUGGAGGUGGCGG [A32U G43U] ?
0.384

What value of measured self-cleavage is listed for AACACUGCCAAUGCCUGUCCUAAGCCCGGAUAAAAGUGGAGGGGGCGG [G16U C21U] ?
0.105
